# system-name: UniProtKB P01116
# Sequence (P01116 whole entry): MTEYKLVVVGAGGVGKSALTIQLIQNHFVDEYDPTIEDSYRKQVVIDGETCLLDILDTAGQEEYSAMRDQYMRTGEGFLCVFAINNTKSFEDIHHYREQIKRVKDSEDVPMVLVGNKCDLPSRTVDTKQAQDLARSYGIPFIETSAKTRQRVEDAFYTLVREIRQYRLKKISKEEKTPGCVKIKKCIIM
# method-summary: Binding to KRAS by surface plasmon resonance (SPR), Single Cycle Kinetics
# experimental-context: SPR, Single Cycle Kinetics, GDP-bound KRAS wild-type protein; read-out: KRAS KD
Recorded Kd, one value per entry.
Field format: number, assumed nM, no unit text.

Worked cases, Kd given:
substance-smiles: CCO[C@@H]1C[C@H]2C(=O)NC3(CCC3)C(=O)N(C)[C@@H](C3CCCC3)C(=O)N(C)[C@H](C(=O)N(C)C)CC(=O)N(C)[C@H]3CCCCCc4ccc(cc4)C[C@@H](C(=O)N(C)CC(=O)N[C@@H](CCc4cc(F)c(C(F)(F)F)c(F)c4)C(=O)N2C1)N1CC/C=C\C[C@@H](C1=O)N(C)C(=O)CN(C)C(=O)[C@H]([C@@H](C)CC)NC3=O
system-name: UniProtKB P01116
display-unit: nM
test-value: 0.18
--
substance-smiles: CCO[C@@H]1C[C@H]2C(=O)NC3(CC(C)(C)C3)C(=O)N(C)[C@@H](C(CC)CC)C(=O)N(C)[C@H](C(=O)N3CCCC3)CC(=O)N(C)[C@@H](C)C(=O)N[C@@H]([C@@H](C)CC)C(=O)N(C)CC(=O)N(C)[C@H]3C/C=C\CCN(C3=O)[C@@H](Cc3ccc(C(F)(F)F)cc3)C(=O)N(C)CC(=O)N[C@@H](CCc3ccc(C(F)(F)F)c(OC)c3)C(=O)N2C1
system-name: UniProtKB P01116
display-unit: nM
test-value: 0.41

Give Kd for `C#CCN1CC(=O)N(C)[C@H]2C/C=C\CCN(C2=O)[C@@H](Cc2ccc(C(F)(F)F)cc2)C(=O)N(C)CC(=O)N[C@@H](CCc2cc(F)c(C(F)(F)F)c(F)c2)C(=O)N2C[C@H](OCC)C[C@H]2C(=O)NC2(CC(C)(C)C2)C(=O)N(C)[C@@H](C2CCCC2)C(=O)N(C)[C@H](C(=O)N(C)C)CC(=O)N(C)[C@@H](CCC)C(=O)N[C@@H]([C@@H](C)CC)C1=O`
0.25
